The values you see were collected from patent US20230391832A1.

target-of-assay: T1, AAV9 capsids (adeno-associated virus serotype 9, Assembled icosahedral capsid of about 60 subunits (VP1, VP2, VP3 from one gene). One VP1 chain is given. Example 1's screen does not say whether the capsids were full or empty.)
T1 construct: Assembled virus capsid
experimental-details: ELISA, AAV9 capsids coated on plate, His-tagged variant in E. coli lysate, anti-His-HRP luminescence; signal relative to HSA (A) or to PKD2 control (B)
measurement-name: fold specificity for AAV9 capsids

binder="SEQ ID NO 45 (designed binder, N-terminal Met printed as (M)) MATGVRAVPGNENSLEIEELARFAVDEHNKKENALLEFVRVVKAKEQVVAGTMYYLTLEAKDGGKKKLYEAKVWVKVAAYPRASINFKELQEFKPVGDA" reported="> 3 fold"
binder="SEQ ID NO 26 (designed binder, N-terminal Met printed as (M)) MATGVRAVPGNENSLEIEELARFAVDEHNKKENALLEFVRVVKAKEQVVAGTMYYLTLEAKDGGKKKLYEAKVWVKIRAIVYWSGNFKELQEFKPVGDA" reported="> 3 fold"
binder="SEQ ID NO 51 (designed binder, N-terminal Met printed as (M)) MATGVRAVPGNENSLEIEELARFAVDEHNKKENALLEFVRVVKAKEQVVAGTMYYLTLEAKDGGKKKLYEAKVWVKVRYWVDRRKNFKELQEFKPVGDA" reported="> 3 fold"
binder="MCDIPPFVCWWPSWCVWATWVCDGAPDCIDNYDEWICTPTP (designed binder, N-terminal Met printed as (M)) [SEQ ID NO 10]" reported="> 3 fold"
binder="SEQ ID NO 49 (designed binder, N-terminal Met printed as (M)) MATGVRAVPGNENSLEIEELARFAVDEHNKKENALLEFVRVVKAKEQVVAGTMYYLTLEAKDGGKKKLYEAKVWVKSVAIRNWYWNFKELQEFKPVGDA" reported="> 3 fold"
binder="SEQ ID NO 34 (designed binder, N-terminal Met printed as (M)) MATGVRAVPGNENSLEIEELARFAVDEHNKKENALLEFVRVVKAKEQVVACTMYYLTLEAKDDGKKKLYEAKVWVKSRVRVIRWGNFKELQEFKPVGDA" reported="> 3 fold"
binder="SEQ ID NO 30 (designed binder, N-terminal Met printed as (M)) MATGVRAVSGNENGLEIEELARFAVDEHNKKENALLEFVRVVKAKEQVVAGTMYYLTLEAKDGGKKKLYEAKVWVKRIVRVAVWVNFRELQEFKPVGDA" reported="> 3 fold"
binder="SEQ ID NO 28 (designed binder, N-terminal Met printed as (M)) MATGVRAVPGNENSLEIEELARFAVDEHNKKENALLEFVRVVKAKEQVVAGTMYYLTLEAKDGGKKKLYEAKVWVKAGYIGRSKANFKELQEFKPVGDA" reported="> 3 fold"
binder="SEQ ID NO 37 (designed binder, N-terminal Met printed as (M)) MATGVRAVSGNENSLEIEELARFAVDEHNKKENALLEFVRVVKAKEQVVAGTMYYLTLEAKDGGKKKLYEAKVWVKSPVYWPKGGNFKELQEFKPVGDA" reported="> 3 fold"
